Origin of the recorded values: patent US10065924B2

# Tested on: E. faecium 501
# runDescription: Micro-broth MIC assay, E. faecium 501
# Format: cell-based, Enterococcus faecium
# conditionDetails: Enterococcus faecium, 501; Gram-(+); clinical strain; triplicate; no growth after 16-24 hours at 37° C.; read-out: Minimum Inhibitory Concentration (MIC) E. faecium 501
propertyMeasured: MIC (µg/mL)
Answers are plain numbers, in µg/mL.

// solved cases for MIC follow
COc1cc(OC)c2c(O)c3c(c4c2c1[C@@]1(C4)C(C)=CCCC1(C)C)C(=O)[C@H]1CC(O)=C(C(N)=O)C[C@@]1(O)C3=O (racemic) [(±)-V4] ... 4
COc1cc(O)c2c(O)c3c(c4c2c1[C@]1(C4)C(C)=CCCC1(C)C)[C@H](O)[C@H]1CC(O)=C(C(N)=O)C(=O)[C@@]1(O)C3=O (racemic) [(±)-V5] ... 1
COc1cc(O)c2c(O)c3c(c4c2c1[C@]1(C4)C(C)=CCCC1(C)C)[C@@H](O)[C@H]1CC(O)=C(C(N)=O)C(=O)[C@@]1(O)C3=O (racemic) [(±)-V6] ... 0.5
COc1cc(O)c2c(O)c3c(c4c2c1[C@@]1(C4)C(C)=CCCC1(C)C)C(=O)[C@H]1CC(O)=C(C(N)=O)C[C@@]1(O)C3=O (racemic) [(±)-V3] ... 2

Exercise: Fill blank: measured MIC of the compound COc1cc(O)c2c(O)c3c(c4c2c1[C@]1(C4)C(C)=CCCC1(C)C)C(=O)[C@H]1CC(O)=C(C(N)=O)C(=O)[C@@]1(O)C3=O (racemic) [(±)-V2] is ____.
Key: 0.5
